B1: Far upstream element-binding protein 1, residues 98 to 169; numbered along this chain, Q96AE4 (parent)
chain: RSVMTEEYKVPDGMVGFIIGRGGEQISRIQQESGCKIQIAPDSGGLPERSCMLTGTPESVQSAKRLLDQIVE

Variants of: B1
Assay: abundance fitness (aPCA) (normalised: wild type 0, dead -1); higher = more abundant; growth selection in yeast, the domain comes from the species named
Details: Homo sapiens
Would you mind telling me the reported abundance fitness of each entry?
Write the value as a bare number.

Form field: reported abundance fitness of RSVMTEEYKVPDGMVGFIIGRGGEQISRIQQESGCKIQIAPDSGGLPERSTMLTGTPESVQSAKRLLDQIVE [C51T]
-0.093

Form field: reported abundance fitness of RSVMTEEYKVPDGMVGFIIGRGGEQISRIQQESGCKIQIAPTSGGLPERSCMLTGTPESVQSAKRLLDQIVE [D42T]
-0.053

Form field: reported abundance fitness of RSVMTEEYKVPDGMVGFIIGRGGEQISRCQQESGCKIQIAPDSGGLPERSCMLTGTPESVQSAKRLLDQIVE [I29C]
-0.179

Form field: reported abundance fitness of RSVMTEEYKHPDGMVGFIIGRGGEQISRIQQESGCKIQIAPDSGGLPERSCMLTGTPESVQSAKRLLDQIVE [V10H]
-0.502

Form field: reported abundance fitness of RSVMTEEYKVPDGMVGFIIGRGGEQISRIQQESGCKIQIAPDSGGLPERSPMLTGTPESVQSAKRLLDQIVE [C51P]
-0.597

Form field: reported abundance fitness of RSVMTEEYKVPDGMVGNIIGRGGEQISRIQQESGCKIQIAPDSGGLPERSCMLTGTPESVQSAKRLLDQIVE [F17N]
0.022

Form field: reported abundance fitness of RSVMTEEYKVPDGMVGFIIGRGGEQISRIQQESGCKIQIAPDSGGLPERSCMLTITPESVQSAKRLLDQIVE [G55I]
-1.12

Form field: reported abundance fitness of RSVMTEEYKVPDGMVGFIIGRGGEQISRIQQESGCKIQIAPDSGGLPERSCMLTGIPESVQSAKRLLDQIVE [T56I]
-0.079

Form field: reported abundance fitness of RSVMTEEYKVPDGLVGFIIGRGGEQISRIQQESGCKIQIAPDSGGLPERSCMLTGTPESVQSAKRLLDQIVE [M14L]
-0.013

Form field: reported abundance fitness of RSVMTEEYKVPDGMVGFIIGPGGEQISRIQQESGCKIQIAPDSGGLPERSCMLTGTPESVQSAKRLLDQIVE [R21P]
-0.027

Form field: reported abundance fitness of RSVMTEEYKVPDGMVGFIIGRGGEQISRIQQESGCKIQIAPDSGGLPERSCMLTGTPESVQSAKRLLDFIVE [Q69F]
-0.097

Form field: reported abundance fitness of RSVMTEEYKVPDGMVGFIIGRGGEQISRIQQESGAKIQIAPDSGGLPERSCMLTGTPESVQSAKRLLDQIVE [C35A]
-0.036

Form field: reported abundance fitness of RSVMTEEYKVPDGMVGFIIGRGGEQISRIQQESMCKIQIAPDSGGLPERSCMLTGTPESVQSAKRLLDQIVE [G34M]
-0.117

Form field: reported abundance fitness of RSVMTEEYKVPCGMVGFIIGRGGEQISRIQQESGCKIQIAPDSGGLPERSCMLTGTPESVQSAKRLLDQIVE [D12C]
-0.057

Form field: reported abundance fitness of RSVMTEEYKVPDGMVGFIIGRGGEQISRIQQESGCKIQIAPDSGGLMERSCMLTGTPESVQSAKRLLDQIVE [P47M]
-0.088

Form field: reported abundance fitness of RSVMTEEYKVTDGMVGFIIGRGGEQISRIQQESGCKIQIAPDSGGLPERSCMLTGTPESVQSAKRLLDQIVE [P11T]
-0.124

Form field: reported abundance fitness of RSVMTEEYKVPDGMVGFIIGRGGEQISRIQQESGCMIQIAPDSGGLPERSCMLTGTPESVQSAKRLLDQIVE [K36M]
-0.047

Form field: reported abundance fitness of RSVMTEEYKVPDGMVGFIIGRGGEQISRIQQESGCKIQIAPDSGGLPEHSCMLTGTPESVQSAKRLLDQIVE [R49H]
-0.106

Form field: reported abundance fitness of RSVMTEEYKVPDGMVGFIIGRGGEQISRIQQESGCKIQIAPDSGGLPERSCMLTGTPESDQSAKRLLDQIVE [V60D]
-0.768

Form field: reported abundance fitness of RSVMTEEYKVPDYMVGFIIGRGGEQISRIQQESGCKIQIAPDSGGLPERSCMLTGTPESVQSAKRLLDQIVE [G13Y]
0.012

Form field: reported abundance fitness of RSVMTEEYKVPDGMVGFIIGRGGEQISRIQQESGCKIQIAPDSRGLPERSCMLTGTPESVQSAKRLLDQIVE [G44R]
-0.015
